target: P. falciparum rPfAM1 (Plasmodium falciparum, UniProt O96935); construct: made in house; host or cells: Escherichia coli Rosetta 2 (DE3); assay: biochemical; format: biochemical; settings: Dixon plots, triplicate; read-out: Ki rPfAM1
Sequence (O96935 whole entry): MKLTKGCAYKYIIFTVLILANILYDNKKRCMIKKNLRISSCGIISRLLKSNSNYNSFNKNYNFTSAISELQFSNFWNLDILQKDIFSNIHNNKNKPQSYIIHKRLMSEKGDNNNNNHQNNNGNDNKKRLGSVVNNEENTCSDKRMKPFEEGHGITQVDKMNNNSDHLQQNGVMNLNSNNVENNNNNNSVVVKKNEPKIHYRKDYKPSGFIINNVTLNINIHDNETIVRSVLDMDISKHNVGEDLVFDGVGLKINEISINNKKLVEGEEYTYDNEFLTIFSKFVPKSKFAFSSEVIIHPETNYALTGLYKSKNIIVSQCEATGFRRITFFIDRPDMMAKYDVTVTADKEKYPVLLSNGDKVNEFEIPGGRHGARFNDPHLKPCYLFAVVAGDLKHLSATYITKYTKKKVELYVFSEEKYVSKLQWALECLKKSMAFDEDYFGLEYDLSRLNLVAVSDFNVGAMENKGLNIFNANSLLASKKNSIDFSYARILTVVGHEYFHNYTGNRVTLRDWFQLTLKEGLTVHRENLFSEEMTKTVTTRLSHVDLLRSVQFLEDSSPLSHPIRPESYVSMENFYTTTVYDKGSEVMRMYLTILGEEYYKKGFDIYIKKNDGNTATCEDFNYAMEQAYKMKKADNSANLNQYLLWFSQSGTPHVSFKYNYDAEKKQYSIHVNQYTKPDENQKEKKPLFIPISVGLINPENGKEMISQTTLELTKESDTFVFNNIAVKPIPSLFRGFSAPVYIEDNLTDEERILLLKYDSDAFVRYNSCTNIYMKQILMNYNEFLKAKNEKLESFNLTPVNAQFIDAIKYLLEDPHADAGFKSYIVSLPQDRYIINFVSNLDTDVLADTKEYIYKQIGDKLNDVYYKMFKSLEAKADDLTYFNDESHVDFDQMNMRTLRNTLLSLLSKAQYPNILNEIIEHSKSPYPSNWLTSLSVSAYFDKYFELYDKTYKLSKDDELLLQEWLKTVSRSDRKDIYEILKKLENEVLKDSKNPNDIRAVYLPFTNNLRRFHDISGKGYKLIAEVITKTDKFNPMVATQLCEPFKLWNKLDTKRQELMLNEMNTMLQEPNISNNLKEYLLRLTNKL
property-label: Ki (µM)
The figure you give is taken to be in µM; do not add the unit.

So what's the measured Ki for this one? NC1CCc2c(ccc3ccccc23)CC1=O (stereo not shown) [21g]
15

So what's the measured Ki for this one? NC1CCc2ccccc2CC1=O (stereo not shown) [21a]
15

So what's the measured Ki for this one? NC1CCc2c(Br)ccc(Br)c2CC1=O (stereo not shown) [21h]
0.005

So what's the measured Ki for this one? NC1CCc2c(-c3ccccc3)ccc(Br)c2CC1=O (stereo not shown) [21j]
4
